# Test target: T1, MSLN (UniProt Q13421)
# T1 chain: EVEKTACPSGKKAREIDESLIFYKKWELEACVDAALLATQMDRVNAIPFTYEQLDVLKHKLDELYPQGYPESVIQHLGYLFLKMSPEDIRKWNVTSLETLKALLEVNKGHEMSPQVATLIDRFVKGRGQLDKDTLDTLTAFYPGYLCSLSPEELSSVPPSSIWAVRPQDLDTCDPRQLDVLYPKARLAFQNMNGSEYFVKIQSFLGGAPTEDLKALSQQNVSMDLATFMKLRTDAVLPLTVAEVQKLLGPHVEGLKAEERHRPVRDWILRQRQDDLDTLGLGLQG
# Test summary: SPR
Would you mind telling me the reported pKd of each entry?
In plain terms, pKd is the concentration in mol/L turned into minus its base-10 logarithm.

Problem: Suppose we examine the binder PRO3733 (54-32-A07-sc06 G51C_T141C A67G_S68G) (antibody) ALQMTQSPSSLSARVGDRVTIKCQASQSISNYLAWYQQKPGKPPKFLIYDGGDLASGVPSRFSGSGSGRDFTLTISSLQPEDFATYYCQQVYDSNNVENVFGCGTKVTVLGGGGGSGGGGSGGGGSGGGGSQSQLVESGGGLVQPGGSLRLSCAVSGFSLSSYAMGWVRQAPGKCLEYIGYISKIGTTYYASWAKGRFTISKDNSKNTVYLQMNSLRAEDTAVYFCARGSSSGGYLDDGFDPWGQGTLVTVSS ; what pKd value has been reported?
Solution: 8.80

Problem: Suppose we examine the binder PRO3732 (54-21-H03-sc01 A67G_S68G) (antibody) DIQMTQSPSSLSASVGDRVTITCQASESIYSSLAWYQQKPGKAPKLLIYLGGTLASGVPSRFSGSGSGTDFTLTISSLQPEDFATYYCQSTDYTTSTHRNSFGTGTKVTVLGGGGGSGGGGSGGGGSGGGGSEVQLVESGGGLVQPGGSLRLSCAASGFSFSTTYYMCWVRQAPGKGLEWIGCTNTASSVRTYYATWAKGRFTISRDNSKNTVYLQMNSLRAEDTAVYYCARDMGFADYALNLWGQGTLVTVSS ; what pKd value has been reported?
Solution: 9.76

Problem: Suppose we examine the binder PRO2309 (54-32-A07-sc06 G51C_T141C) (antibody) ALQMTQSPSSLSARVGDRVTIKCQASQSISNYLAWYQQKPGKPPKFLIYDASDLASGVPSRFSGSGSGRDFTLTISSLQPEDFATYYCQQVYDSNNVENVFGCGTKVTVLGGGGGSGGGGSGGGGSGGGGSQSQLVESGGGLVQPGGSLRLSCAVSGFSLSSYAMGWVRQAPGKCLEYIGYISKIGTTYYASWAKGRFTISKDNSKNTVYLQMNSLRAEDTAVYFCARGSSSGGYLDDGFDPWGQGTLVTVSS ; what pKd value has been reported?
Solution: 9.25

Problem: Suppose we examine the binder PRO1922 (54-21-H03-sc01) (antibody) DIQMTQSPSSLSASVGDRVTITCQASESIYSSLAWYQQKPGKAPKLLIYLASTLASGVPSRFSGSGSGTDFTLTISSLQPEDFATYYCQSTDYTTSTHRNSFGTGTKVTVLGGGGGSGGGGSGGGGSGGGGSEVQLVESGGGLVQPGGSLRLSCAASGFSFSTTYYMCWVRQAPGKGLEWIGCTNTASSVRTYYATWAKGRFTISRDNSKNTVYLQMNSLRAEDTAVYYCARDMGFADYALNLWGQGTLVTVSS ; what pKd value has been reported?
Solution: 9.82

Data provenance is patent US20260327324.
